Molecular target: T1, ZFP SBS#1067 (synthetic)
T1 chain: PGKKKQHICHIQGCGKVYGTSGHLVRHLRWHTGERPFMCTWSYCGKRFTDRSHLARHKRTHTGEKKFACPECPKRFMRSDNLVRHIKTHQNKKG
Assay: EMSA
Conditions: tags: MBP fusion
outcome measure: pKd
By convention, pKd is the negative base-10 log of a molar concentration.

stdin: # input binder: GAGGGCGGT (dsDNA) DNA 1: GAGGGCGGT DNA 2: ACCGCCCTC ; wanted: its pKd
stdout: 8.86
